biological target: T1, bio-His-PADI4 with the active site covalently blocked by Cl-amidine (human, UniProt Q9UM07 1-663, biotin on the N-terminal Avi-Tag (BirA); active site covalently blocked with Cl-amidine (residue not stated)); assay: SPR; as a1 with 10 mM CaCl2 and the PADI4 active site blocked with Cl-amidine; Bio-His-PADI4 captured, peptide as analyte; 25 °C; 1:1 binding model; details: both partners purified
T1 construct: human peptidylarginine deiminase IV (PADI4), residues 1-663; Same protein as m1; also called 10 mM CaCl2 + Cl-amidine; source: E. coli BL21-DE3 co-expressing biotin ligase (BirA), purified (Ni-NTA, S200 SEC); treated with Cl-amidine; not shown: Avi-Tag (biotinylated), N-terminal, kept; His6, N-terminal, kept
T1 sequence (Q9UM07 whole entry, the tested form may be a part): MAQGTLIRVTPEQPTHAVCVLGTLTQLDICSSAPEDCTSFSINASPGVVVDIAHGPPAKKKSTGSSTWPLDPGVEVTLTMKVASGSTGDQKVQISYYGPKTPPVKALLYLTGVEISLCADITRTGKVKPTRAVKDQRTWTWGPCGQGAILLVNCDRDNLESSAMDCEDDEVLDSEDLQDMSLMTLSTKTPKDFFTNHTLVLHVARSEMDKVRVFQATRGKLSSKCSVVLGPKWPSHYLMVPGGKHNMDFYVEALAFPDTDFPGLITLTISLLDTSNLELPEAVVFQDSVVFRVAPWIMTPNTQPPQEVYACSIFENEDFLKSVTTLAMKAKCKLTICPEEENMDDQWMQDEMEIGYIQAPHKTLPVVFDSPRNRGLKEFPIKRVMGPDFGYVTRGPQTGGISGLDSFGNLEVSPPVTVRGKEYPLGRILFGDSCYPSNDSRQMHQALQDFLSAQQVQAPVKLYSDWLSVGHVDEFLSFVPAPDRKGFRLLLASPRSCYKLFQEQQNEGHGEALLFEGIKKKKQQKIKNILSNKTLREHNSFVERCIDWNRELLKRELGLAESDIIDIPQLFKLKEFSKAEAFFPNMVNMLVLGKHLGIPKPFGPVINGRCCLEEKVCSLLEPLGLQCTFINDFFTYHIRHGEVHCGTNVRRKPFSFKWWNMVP
I'd be grateful if you could share measured Kd for these entries.

Tell me Kd reported for YFYRIGFWYPNYQCG (not fully specified; D-tyrosine at position 1; cyclised via a thioether bond between the N-terminus (chloroacetylated) and the cysteine side chain (Cys14, from the letters); C-terminal amide, cyclic peptide from RaPID selection 1 (10 mM CaCl2); also called PAD4_1; source: synthetic peptide (Fmoc solid-phase synthesis, HPLC purified)) [PADI4_1] 0.727 µM

Give the value of Kd reported for the following: YPWEISVWLLYCG (not fully specified; D-tyrosine at position 1; cyclised via a thioether bond between the N-terminus (chloroacetylated) and the cysteine side chain (Cys12, from the letters); C-terminal amide, cyclic peptide from RaPID selection 2 (0 mM CaCl2); source: synthetic peptide (Fmoc solid-phase synthesis, HPLC purified)) [PADI4_10] > 2 µM

Look up Kd of YYPKGSWGYKLFCG (not fully specified; D-tyrosine at position 1; cyclised via a thioether bond between the N-terminus (chloroacetylated) and the cysteine side chain (Cys13, from the letters); C-terminal amide, cyclic peptide from RaPID selection 2 (0 mM CaCl2); also called PAD4_7; source: synthetic peptide (Fmoc solid-phase synthesis, HPLC purified)) [PADI4_7] and report it. 0.036 µM

Answer with the recorded Kd of YAQWYIWVLLCG (not fully specified; D-tyrosine at position 1; cyclised via a thioether bond between the N-terminus (chloroacetylated) and the cysteine side chain (Cys11, from the letters); C-terminal amide, cyclic peptide from RaPID selection 2 (0 mM CaCl2); source: synthetic peptide (Fmoc solid-phase synthesis, HPLC purified)) [PADI4_9] only. > 2 µM

Identify measured Kd corresponding to YATPWLIVVLCG (not fully specified; D-tyrosine at position 1; cyclised via a thioether bond between the N-terminus (chloroacetylated) and the cysteine side chain (Cys11, from the letters); C-terminal amide, cyclic peptide from RaPID selection 1 (10 mM CaCl2); source: synthetic peptide (Fmoc solid-phase synthesis, HPLC purified)) [PADI4_5] > 2 µM

Tell me Kd reported for YLVLTIRLVLCG (not fully specified; D-tyrosine at position 1; cyclised via a thioether bond between the N-terminus (chloroacetylated) and the cysteine side chain (Cys11, from the letters); C-terminal amide, cyclic peptide from RaPID selection 1 (10 mM CaCl2); source: synthetic peptide (Fmoc solid-phase synthesis, HPLC purified)) [PADI4_6] > 2 µM

Determine from records and report Kd for YHRLIVVIYVCG (not fully specified; D-tyrosine at position 1; cyclised via a thioether bond between the N-terminus (chloroacetylated) and the cysteine side chain (Cys11, from the letters); C-terminal amide, cyclic peptide from RaPID selection 1 (10 mM CaCl2); source: synthetic peptide (Fmoc solid-phase synthesis, HPLC purified)) [PADI4_4] > 2 µM

Tell me Kd reported for YTLWTVLVVICCG (not fully specified; D-tyrosine at position 1; cyclised via a thioether bond between the N-terminus (chloroacetylated) and the cysteine side chain (the cysteine marked C(S-), Cys11 from the letters); C-terminal amide, cyclic peptide from RaPID selection 2 (0 mM CaCl2); source: synthetic peptide (Fmoc solid-phase synthesis, HPLC purified)) [PADI4_8] > 2 µM

FYI, the data here is from paper PMC11555231.
